Test system: SK-MEL-2 melanoma
Assay: NCI tumour cell line growth inhibition, 48 h; in the data active = GI50 below about 0.43 µM; inactive = the rest
Please reply with one of these outcomes: active, inactive

query: Assay outcome for Cn1c2ccccc2c2c(=O)n(CCCC(=O)NCC(=O)OC(=NC3CCCCC3)NC3CCCCC3)c3c(-c4ccccc4)nnn3c21 : what was it?
result: inactive

query: For COc1ccc(/C=C/C(=O)c2ccc(Nc3ncnc4ccccc34)cc2)cc1OC , which call appears in the assay record?
result: inactive

query: Lab log entry: COC(=O)c1c2c(c(C)[n+]([O-])c1C)C(=O)C=C(NCc1ccc(Cl)cc1)C2=O — outcome as called in the assay?
result: inactive

query: For this compound, state the assay outcome: O=C(Oc1ccccc1)c1cc(O)c(O)c(O)c1
result: inactive

query: Record lookup: outcome of this test for CC(C)(C)Cn1c(N)nc2ccc(-c3[nH]c(C(C)(C)C)nc3-c3ccc(F)cc3)nc21 ?
result: inactive

query: What did this assay record as the result for N#Cc1c(NC(=O)c2cccs2)[n+]([O-])c2ccccc2[n+]1[O-] ?
result: inactive

query: Test call for this compound, please: COc1ccc2c(c1)[nH]c(=O)c1c3cccnc3cn21
result: active

query: Recorded call for C=C1C(=O)O[C@H]2[C@H]1CC/C(COC(=O)NCCc1ccc(OC)cc1)=C\CC[C@@]1(C)O[C@@H]21 ?
result: inactive

query: What was the test verdict on Nc1nc(-n2cccn2)nc(-n2cccn2)c1Br ?
result: inactive

query: Short answer needed: outcome of this test for CCN(CC)CCC(=O)Nc1cccc2c1C(=O)c1c(c(O)c3ccccc3c1O)C2=O ?
result: inactive

query: GET /call?item= Clc1nc(Cl)c2ncn(C/C=C\Cn3cnc4c(Cl)nc(Cl)nc43)c2n1 returns the recorded outcome of this test.
result: inactive

query: What outcome does the record of this test show for S=C(Nc1ccccc1)c1ccccn1 ?
result: inactive

query: Any idea what this test logged for C#Cc1cccc(NC(=O)Nc2ccc(NC(=O)CCl)cc2)c1 ?
result: inactive

query: Short answer needed: outcome of this test for O=C(Nc1ccccc1Cl)c1cnc2ccc(C3CCNCC3)cn12 ?
result: inactive

* * *

Test system: NCI-H460 lung
Outcome (select one): active, inactive

query: Status in this test for COc1ccc(Cl)cc1N1C(=O)C(Cl)=C(Nc2cccc(O)c2)C1=O ?
result: inactive

query: Per the records of this test, what outcome belongs to Cc1ccc(NC(=O)c2ccnc(C(F)(F)F)c2)cc1-c1cc(OCCO)nc(N2CCOCC2)c1 ?
result: inactive

query: # fetch the recorded call for COc1cc(C)cc2c1OC(c1ccccc1)CC2=O (stereo not drawn) here
result: inactive

query: Which result was noted for this molecule in the test: Clc1cc(Cl)cc(N2N=C(c3cccc(Nc4ccncc4)c3)CC2c2ccccc2)c1 (stereo not drawn)
result: inactive

query: Given COc1ccc(C2=NNC(c3ccc(-c4ccc(OC)cc4[N+](=O)[O-])o3)C2)cc1 (stereo not drawn) , state the outcome it received in this test.
result: inactive

query: Check the results log: what was the call for C#Cc1cccc(NC(=O)Nc2ccc(NC(=O)CCl)cc2)c1 ?
result: inactive

query: Call for entry C=C1C(=O)O[C@H]2[C@H]1CC/C(COC(=O)NCCc1ccc(OC)cc1)=C\CC[C@@]1(C)O[C@@H]21 :
result: inactive

query: Please indicate how the test categorized COc1cc2c(/C=C3/C(=O)Nc4ccccc43)c(Cl)n(Cc3ccccc3)c2cc1C .
result: inactive

query: Please state the recorded outcome for this molecule: COC(=O)C1=CN(CC2=CC(=O)C(C)=CC2=O)C=C(C(=O)OC)C1c1cccc(OC)c1OC
result: inactive

query: Which outcome was entered for the molecule O=C(O)C(/C=C/c1ccco1)=N\Nc1nc(-c2ccc(Cl)cc2)cs1 in this test?
result: inactive

query: Which outcome was entered for the molecule COc1cc2c(cc1OCCCCCOc1cc(-c3ccc(F)cc3)nc(C)n1)N=C[C@@H]1CCCN1C2=O in this test?
result: inactive

query: Please state the recorded outcome for this molecule: Cc1cccc2c3c(sc12)C(c1ccc(Cl)cc1)C(C#N)=C(/N=C/c1ccc(Cl)cc1)O3 (stereo not drawn)
result: active

query: Fill in: this test's call for O=C(CNC(=O)c1cccc2ccccc12)Nc1ccccc1Oc1cccc(O)c1 is ___
result: inactive

* * *

Answer each item with its documented log10 of TGI.
Test system: SK-MEL-28 melanoma
Assay: NCI tumour cell line growth inhibition, 48 h
Scale: log10; quantity: TGI; unit before log: µM

query: Fill in the blank: the reported log10 of TGI of CC(=O)OCC(=O)[C@@]1(O)[C@H](C)C[C@H]2[C@@H]3C=C(C)C4=Cc5c(cnn5-c5ccc(F)cc5)C[C@]4(C)[C@H]3[C@@H](O)C[C@@]21C is ____.
result: 0.45

query: Find the recorded log10 of TGI belonging to OCCNc1nc(NCCO)nc(Nc2ccc(C3=NN(c4cc(Cl)cc(Cl)c4)C(c4ccc(Cl)cc4)C3)cc2)n1 (stereo not given) and report it.
result: 0.48

query: GET /values?readout=log10 of TGI&item= NN/C(=N\S(=O)(=O)c1cc(Cl)c(Oc2ccc([N+](=O)[O-])cc2Cl)c(Cl)c1)Nc1ccc(Cl)cc1
result: 1.68

query: Look up log10 of TGI for this molecule: CC1CCC2(OC1)OC1CC3C4CC=C5CC(OC6OC(CO)C(OC7OC(C)C(OC8OC(C)C(O)C(O)C8O)C(O)C7O)C(O)C6OC6OC(C)C(O)C(O)C6O)CCC5(C)C4CCC3(C)C1C2C (stereo not given)
result: 0.27

query: GET /values?readout=log10 of TGI&item= CCN=C1NN=C(c2ccccc2)c2cc(Cl)ccc2N1
result: 1.53

query: Find the recorded log10 of TGI belonging to Cc1sc2ncnc(NCCc3ccccc3)c2c1C and report it.
result: 1.54

query: What value of measured log10 of TGI is listed for Oc1ccccc1C=Nc1ccc(Oc2ccc(Cl)cc2)c(Cl)c1 ?
result: 1.86

query: Look at this molecule and give its reported log10 of TGI. Nc1cc(N)c2nc(-c3ccccc3)c(Nc3ccc(F)cc3)nc2c1
result: 1.59

query: Give the measured log10 of TGI of O=C(Nc1ccc(C(F)(F)F)cc1[N+](=O)[O-])C(=O)C(C(=O)c1ccc2ccccc2c1)C1OC(=O)c2ccccc21 (stereo not given) .
result: 1.26

query: Name the reported log10 of TGI value associated with the molecule CCOC(=O)c1cc2c(cc1Cl)SC(N(c1ccc(F)cc1)S(=O)(=O)c1ccc(OC)cc1)=NS2(=O)=O
result: 1.46

query: Find the recorded log10 of TGI belonging to CC(SC1=CC(=O)c2c(Cl)ccc(O)c2C1=O)C(=O)O (stereo not given) and report it.
result: 1.52

query: Recorded log10 of TGI for O=[N+]([O-])c1cccc(-c2nc3sccn3c2-c2ccnc(NCCCNS(=O)(=O)c3ccc(F)cc3)n2)c1 , please?
result: 0.90

query: Given the molecule Cc1c(-c2ccccc2)c(-c2ccc(OCCN(C)C)cc2)n2ccccc12 , what is its reported log10 of TGI?
result: 0.54

query: Fill blank: measured log10 of TGI of the molecule Cc1cc2c(C(C)C)c(O)c(O)c3coc(/c1=c1/c(C)cc4c(C(C)C)c(=O)c(=O)c5coc1c45)c32 is ____.
result: 1.35

query: Given COc1ccc(/C=C/C(=O)c2ccc(Nc3ncnc4ccccc34)cc2)cc1OC , state its recorded log10 of TGI.
result: 1.97

query: Form field: reported log10 of TGI of O=C(Nc1ccccc1Cl)c1cnc2ccc(C3CCNCC3)cn12
result: 1.64

query: Would you kindly share the measured log10 of TGI for Fc1ccc(C(OCCN2CCC3CCC(C2)N3CCCc2ccccc2)c2ccc(F)cc2)cc1 (stereo not given) ?
result: 0.81

* * *

Assignment: determine reported TGI for the given compounds.
Tested on: DU-145 prostate
Assay: NCI tumour cell line growth inhibition, 48 h
// return numeric value only (unit: µM, not printed)

query: // query TGI value for entry CC(C)(C)Cn1c(N)nc2ccc(-c3[nH]c(C(C)(C)C)nc3-c3ccc(F)cc3)nc21
result: 23.5

query: Item CCCCCCn1c(-c2ccc(C(=O)O/N=C(\N)c3ccc(OC)cc3)cc2)nc(-c2ccccc2)c1-c1ccccc1 has what recorded TGI?
result: 2.22

query: For the compound C=C1C(=O)O[C@H]2[C@H]1CC/C(COC(=O)NCCc1ccc(OC)cc1)=C\CC[C@@]1(C)O[C@@H]21 , what TGI is on record?
result: 5.16

query: Entry CCOP(=O)(CS(C)=O)O[C@@H]1C[C@H](C)CC[C@H]1C(C)C (some centres undefined) has what TGI?
result: 26.2

query: Value lookup for TGI; key = COC(=O)n1c(=O)nc2c3c(ncn21)Oc1c(c(-c2ccccc2)nn1-c1ccccc1)C3c1ccc(Cl)cc1 (centres undefined)
result: 2.98

query: Need TGI, item Fc1ccc(C(OCCN2CCC3CCC(C2)N3CCCc2ccccc2)c2ccc(F)cc2)cc1 (centres undefined)
result: 22.8

query: GET /values?readout=TGI&item= CC(C)=CCC/C(C)=C/Cc1cc(/C=C/c2cc(O)c(CC=C(C)C)c(O)c2)cc(O)c1O
result: 26.6
